Data provenance: ChEMBL document CHEMBL4402589

ASSAY_PROTOCOL: Cmax in ICR mouse at 5 mg/kg, iv by LC-MS/MS analysis
Type: ADME, organism-based
Parameters: dose 5 mg/kg, route intravenous
PROTOCOL_CONDITIONS: in vivo
REPORTED_PROPERTY: Cmax (ng/mL)
# number only, unit ng/mL dropped from output

Query block: Indicate its recorded Cmax; the compound in question is C[C@@](O)(C#Cc1ccc(F)c(-c2c[nH]c3cnc(N)nc23)c1)c1nccs1
Result block: 3040

----------
TARGET_ENTITY: Mitogen-activated protein kinase kinase kinase 14 (Homo sapiens, UniProt Q99558)
Sequence (Q99558 whole entry, the tested form may be a part): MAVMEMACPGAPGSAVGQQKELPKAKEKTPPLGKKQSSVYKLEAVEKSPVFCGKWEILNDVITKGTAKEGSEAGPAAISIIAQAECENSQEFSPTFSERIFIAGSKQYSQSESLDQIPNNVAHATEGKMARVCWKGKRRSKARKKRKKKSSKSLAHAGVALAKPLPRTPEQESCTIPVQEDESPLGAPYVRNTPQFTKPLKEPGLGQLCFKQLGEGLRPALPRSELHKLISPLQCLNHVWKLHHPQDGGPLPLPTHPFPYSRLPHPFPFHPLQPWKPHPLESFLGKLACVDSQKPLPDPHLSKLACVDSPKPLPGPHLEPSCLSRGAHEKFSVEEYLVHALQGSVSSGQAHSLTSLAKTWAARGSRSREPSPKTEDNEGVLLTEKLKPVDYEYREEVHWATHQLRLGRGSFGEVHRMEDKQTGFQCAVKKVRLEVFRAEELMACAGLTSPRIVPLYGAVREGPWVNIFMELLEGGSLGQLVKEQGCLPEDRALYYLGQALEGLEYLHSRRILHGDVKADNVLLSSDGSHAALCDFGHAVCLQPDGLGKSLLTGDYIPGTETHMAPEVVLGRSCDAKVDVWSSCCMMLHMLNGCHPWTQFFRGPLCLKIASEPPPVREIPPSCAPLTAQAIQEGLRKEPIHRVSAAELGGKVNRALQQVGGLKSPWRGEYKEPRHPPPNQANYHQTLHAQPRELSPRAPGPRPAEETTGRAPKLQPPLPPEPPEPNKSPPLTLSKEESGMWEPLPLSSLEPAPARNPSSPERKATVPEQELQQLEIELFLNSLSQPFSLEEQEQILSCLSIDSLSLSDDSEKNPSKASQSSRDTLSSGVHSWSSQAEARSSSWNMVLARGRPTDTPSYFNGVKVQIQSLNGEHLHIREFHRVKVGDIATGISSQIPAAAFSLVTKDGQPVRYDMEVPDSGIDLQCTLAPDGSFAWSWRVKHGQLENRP
ASSAY_PROTOCOL: Inhibition of human NIK using ATP as substrate by kinase-glo assay
REPORTED_PROPERTY: IC50 (nM)
# number only, unit nM dropped from output

Query block: Indicate its recorded IC50; the molecule in question is C[C@@](O)(C#Cc1ccc2c(c1)N(c1nc(N)ncc1Cl)CC2)c1nccs1
Result block: 4.2

----------
ASSAY_PROTOCOL: Cmax in ICR mouse at 15 mg/kg, po by LC-MS/MS analysis
Format: ADME, organism-based
Parameters: dose 15 mg/kg, route oral
PROTOCOL_CONDITIONS: in vivo
REPORTED_PROPERTY: Cmax (ng/mL)
# number only, unit ng/mL dropped from output

Query block: Indicate its recorded Cmax; the molecule in question is C[C@@](O)(C#Cc1ccc(F)c(-c2c[nH]c3cnc(N)nc23)c1)c1nccs1
Result block: 510

----------
ASSAY_PROTOCOL: Oral bioavailability in ICR mouse at 15 mg/kg by LC-MS/MS analysis
Assay type: ADME, organism-based
PROTOCOL_CONDITIONS: in vivo
REPORTED_PROPERTY: bioavailability
Note: a bare number is incomplete; add the unit.

Query block: Indicate its recorded bioavailability; the compound in question is C[C@@](O)(C#Cc1ccc(F)c(-c2c[nH]c3cnc(N)nc23)c1)c1nccs1
Result block: 13%

----------
TARGET_ENTITY: Mitogen-activated protein kinase kinase kinase 14 (Homo sapiens, UniProt Q99558)
ASSAY_PROTOCOL: Inhibition of recombinant human N-terminal GST-tagged NIK (318 to 947 residues) expressed in baculovirus infected Sf9 cells using ultrapure ATP as substrate measured after 1 hr by ADP-glo assay
I'd appreciate it if you marked entries rule met when IC50 is lower than 30 nM and rule not met when it is not.

[
  {
    "COMPOUND": "CC(O)(C#Cc1ccc(F)c(-n2ccc3cnc(N)nc32)c1)c1nccs1 (stereo not given)",
    "CATEGORY_LABEL": "rule not met"
  },
  {
    "COMPOUND": "CNc1ccc(-n2ccc3cnc(N)nc32)cc1C#CC(C)(O)c1nccs1 (stereo not given)",
    "CATEGORY_LABEL": "rule not met"
  },
  {
    "COMPOUND": "CCc1nc(N)nc2c1ccn2-c1ccnc(C#CC2(O)CCN(C)C2=O)c1 (stereo not given)",
    "CATEGORY_LABEL": "rule not met"
  },
  {
    "COMPOUND": "CN1CCC(O)(C#Cc2cc(-n3ccc4cnc(N)nc43)ccn2)C1=O (stereo not given)",
    "CATEGORY_LABEL": "rule met"
  },
  {
    "COMPOUND": "CN(C)CCOc1ccc(-n2ccc3cnc(N)nc32)cc1C#CC(C)(O)c1nccs1 (stereo not given)",
    "CATEGORY_LABEL": "rule not met"
  },
  {
    "COMPOUND": "C[C@@](O)(C#Cc1ccc2c(c1)N(c1nc(N)ncc1Cl)CC2)c1nccs1",
    "CATEGORY_LABEL": "rule met"
  },
  {
    "COMPOUND": "CN1CCC(O)(C#Cc2ccc(F)c(-c3c[nH]c4cnc(N)nc34)c2)C1=O (stereo not given)",
    "CATEGORY_LABEL": "rule met"
  },
  {
    "COMPOUND": "Cc1cc(C(C)(O)C#Cc2cccc(-c3c[nH]c4cnc(N)nc34)c2)no1 (stereo not given)",
    "CATEGORY_LABEL": "rule not met"
  },
  {
    "COMPOUND": "CN1CCCC(O)(C#Cc2cc(-n3ccc4cnc(N)nc43)ccn2)C1=O (stereo not given)",
    "CATEGORY_LABEL": "rule met"
  }
]

Now for another entry.
Query block: Problem: For the compound Nc1ncc2[nH]cc(-c3cccc(C#CC4(O)CCCC4)c3)c2n1 , is IC50 under 30 nM?
Result block: rule not met
